TARGET: KMT9 (Homo sapiens, UniProt Q9Y5N5)
Sequence (Q9Y5N5 whole entry): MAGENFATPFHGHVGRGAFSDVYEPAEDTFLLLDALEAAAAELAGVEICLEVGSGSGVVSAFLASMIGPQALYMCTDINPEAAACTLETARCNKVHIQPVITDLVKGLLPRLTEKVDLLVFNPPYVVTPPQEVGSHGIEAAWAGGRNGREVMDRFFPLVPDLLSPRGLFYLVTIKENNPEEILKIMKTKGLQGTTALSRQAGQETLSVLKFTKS
Sequence (Q9UI30 1-120 isoform Q9UI30-2 partner): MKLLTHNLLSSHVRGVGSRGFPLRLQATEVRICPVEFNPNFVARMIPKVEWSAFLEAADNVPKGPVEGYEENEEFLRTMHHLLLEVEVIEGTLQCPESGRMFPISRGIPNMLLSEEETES
ASSAY_METHOD_TEXT: KMT9 thermal shift assay (SyproOrange)
Assay type: binding
CONDITIONS_USED: ΔTm; 500 µM compound, 2 μM KMT9, 5X SO; read-out: Thermal shift
ΔTm at 500 µM: recorded values

# annotated cases, reported ΔTm at 500 µM shown
Task: Jot down ΔTm at 500 µM (KMT9 (Homo sapiens, UniProt Q9Y5N5)) of Nc1ncnc2c1ncn2[C@@H]1O[C@H](C(=O)NCCCNCCc2ccccc2)[C@@H](O)[C@H]1O [301 (198)] .
Result: ≤ 10 °C

Task: Give ΔTm at 500 µM; test system KMT9 (Homo sapiens, UniProt Q9Y5N5); compound Nc1ncnc2c1c(-c1nccs1)cn2[C@@H]1C[C@H](CNCCCNCCc2ccc(F)cc2)[C@@H](O)[C@H]1O [Compound 602]
Result: 15 to 20 °C

Task: Report value: ΔTm at 500 µM, system: KMT9 (Homo sapiens, UniProt Q9Y5N5), compound: CNc1ncnc2c1ccn2[C@@H]1C[C@H](CN2CCC[C@@]23CCCNC3)[C@@H](O)[C@H]1O (single isomer, unassigned) [450 (322)]
Result: ≤ 10 °C

Task: Report the value of ΔTm at 500 µM obtained on KMT9 (Homo sapiens, UniProt Q9Y5N5) for Nc1ncnc2c1c(-c1nccs1)cn2[C@@H]1C[C@H](CNCCCNCCc2ccccc2)[C@@H](O)[C@H]1O [474 (348)] .
Result: 15 to 20 °C

Task: # lookup: KMT9 (Homo sapiens, UniProt Q9Y5N5) ΔTm at 500 µM, key = C=Cc1cn([C@@H]2C[C@H](CNCCCNCCc3cccc(Oc4ccccc4)c3)[C@@H](O)[C@H]2O)c2ncnc(N)c12 [462 (336)]
Result: 15 to 20 °C

Task: Consider the compound CNc1ncnc2c1ccn2[C@@H]1C[C@H](CNCCCNCc2ccc(OCc3ccccc3)cc2)[C@@H](O)[C@H]1O [328 (232)] tested on KMT9 (Homo sapiens, UniProt Q9Y5N5); state its ΔTm at 500 µM.
Result: ≤ 10 °C

Others:
Task: Under KMT9 (Homo sapiens, UniProt Q9Y5N5), report ΔTm at 500 µM for C=Cc1cn([C@@H]2C[C@H](CNCCCNCCc3ccccc3)[C@@H](O)[C@H]2O)c2ncncc12 [Compound 608]
Result: ≤ 10 °C
